System Tested: human AOC3 enzyme (recombinant CHO cells) (Homo sapiens)
Construct: expressed in transfected cells; host or cells: CHO cells
Sequence (Q16853 whole entry): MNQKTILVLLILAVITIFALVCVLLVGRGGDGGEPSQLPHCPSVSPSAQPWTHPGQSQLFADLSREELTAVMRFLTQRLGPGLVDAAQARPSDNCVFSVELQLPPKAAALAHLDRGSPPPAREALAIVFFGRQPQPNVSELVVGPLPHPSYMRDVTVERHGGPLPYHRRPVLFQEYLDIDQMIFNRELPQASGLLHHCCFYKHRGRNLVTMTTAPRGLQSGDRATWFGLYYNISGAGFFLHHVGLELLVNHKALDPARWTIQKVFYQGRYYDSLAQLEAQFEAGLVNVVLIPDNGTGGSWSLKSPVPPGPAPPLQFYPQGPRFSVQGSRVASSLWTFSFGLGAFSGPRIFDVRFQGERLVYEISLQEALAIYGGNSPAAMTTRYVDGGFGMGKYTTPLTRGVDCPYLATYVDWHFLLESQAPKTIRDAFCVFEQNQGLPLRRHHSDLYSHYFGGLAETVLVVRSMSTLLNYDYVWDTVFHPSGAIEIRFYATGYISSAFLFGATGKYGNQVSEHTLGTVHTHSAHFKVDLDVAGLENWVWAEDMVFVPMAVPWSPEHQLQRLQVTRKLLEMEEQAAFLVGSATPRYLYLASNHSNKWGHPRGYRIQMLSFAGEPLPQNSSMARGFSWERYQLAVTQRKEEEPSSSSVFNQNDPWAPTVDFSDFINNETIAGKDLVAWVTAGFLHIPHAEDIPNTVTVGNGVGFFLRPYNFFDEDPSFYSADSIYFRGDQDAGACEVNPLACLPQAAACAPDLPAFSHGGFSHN
Procedure Text: AOC3 biochemical assay (MAO-Glo), human enzyme
Run Parameters: read-out: AOC3 IC50
pIC50: −log10 of the molar value.
Property Measured: pIC50

Recorded results for 2 compounds are shown here.
Compound Structure	pIC50
COC(=O)C1CCN(S(=O)(=O)c2ccc(OC/C(=C\F)CN)nc2)CC1	8.40
NC/C(=C/F)COc1ccc(S(=O)(=O)N2CCC(C(=O)N3CCC3)CC2)cn1	7.66

I = CC(C)(O)CNC(=O)[C@H]1CCN(S(=O)(=O)c2ccc(OC/C(=C\F)CN)nc2)C1
II = CC1(C(N)=O)CCN(S(=O)(=O)c2ccc(OC/C(=C\F)CN)nc2)CC1
Between I and II , which one shows the larger pIC50 value? Field: selected label. Fill in the label of the entry you choose.
II

* * *

System Tested: AOC2 (Homo sapiens)
Construct: host or cells: HEK293 cells (transient transfection), cell homogenate
Procedure Text: AOC2 biochemical assay (Amplex Red)
Run Parameters: read-out: AOC2 IC50
Property Measured: IC50 (nM)

The examples below pair each entry with its known result.
Compound	System Tested	Property Measured	Quantitative Readout
NC/C(=C/F)COc1ccc(S(=O)(=O)N2CC[C@H](C(=O)N3CCOCC3)C2)cn1	AOC2 (Homo sapiens)	IC50	101
CNC(=O)[C@@H]1CCN(S(=O)(=O)c2ccc(OC/C(=C\F)CN)nc2)C1	AOC2 (Homo sapiens)	IC50	203
COC(=O)C1(C)CCN(S(=O)(=O)c2ccc(OC/C(=C\F)CN)nc2)CC1	AOC2 (Homo sapiens)	IC50	3
CNC(=O)[C@H]1[C@@H]2CN(S(=O)(=O)c3ccc(OC/C(=C\F)CN)nc3)C[C@@H]21	AOC2 (Homo sapiens)	IC50	62
NC/C(=C/F)COc1ccc(S(=O)(=O)N2CCCCC2)cn1	AOC2 (Homo sapiens)	IC50	61

A = NC/C(=C/F)COc1ccc(S(=O)(=O)N2CC(C(N)=O)C2)cn1
B = NC/C(=C/F)COc1ccc(S(=O)(=O)N2CCC[C@H]2C(N)=O)cn1
C = NC/C(=C/F)COc1ccc(S(=O)(=O)N2CCC(CC(N)=O)CC2)cn1
D = NC/C(=C/F)COc1ccc(S(=O)(=O)N2CCC(O)(C(F)(F)F)CC2)cn1
E = CC(=O)N[C@@H]1CCCN(S(=O)(=O)c2ccc(OC/C(=C\F)CN)nc2)C1
Arrange by IC50, high to low. # output: labels, in the requested order
B, A, E, C, D
(B: 205 nM, A: 119 nM, E: 72 nM, C: 16 nM, D: 9 nM)

I = CC(C)(O)CNC(=O)[C@H]1CCN(S(=O)(=O)c2ccc(OC/C(=C\F)CN)nc2)C1
II = CC1(O)CN(S(=O)(=O)c2ccc(OC/C(=C\F)CN)nc2)C1
Smaller IC50 value? Options are I and II Please identify the chosen entry by its label.
II
(II: 189 nM, I: 272 nM)

I = COC(=O)[C@H]1[C@@H]2CN(S(=O)(=O)c3ccc(OC/C(=C\F)CN)nc3)C[C@@H]21
II = CN(C)C(=O)C1CN(S(=O)(=O)c2ccc(OC/C(=C\F)CN)nc2)C1
Compare reported IC50 values for I and II . Which is lower? Indicate which entry you chose by stating its label.
II
(II: 68 nM, I: 277 nM)

* * *

System Tested: AOC2 (Homo sapiens, UniProt O75106)
Construct: host or cells: HEK293 cells (transient transfection), cell homogenate
Sequence (O75106 whole entry): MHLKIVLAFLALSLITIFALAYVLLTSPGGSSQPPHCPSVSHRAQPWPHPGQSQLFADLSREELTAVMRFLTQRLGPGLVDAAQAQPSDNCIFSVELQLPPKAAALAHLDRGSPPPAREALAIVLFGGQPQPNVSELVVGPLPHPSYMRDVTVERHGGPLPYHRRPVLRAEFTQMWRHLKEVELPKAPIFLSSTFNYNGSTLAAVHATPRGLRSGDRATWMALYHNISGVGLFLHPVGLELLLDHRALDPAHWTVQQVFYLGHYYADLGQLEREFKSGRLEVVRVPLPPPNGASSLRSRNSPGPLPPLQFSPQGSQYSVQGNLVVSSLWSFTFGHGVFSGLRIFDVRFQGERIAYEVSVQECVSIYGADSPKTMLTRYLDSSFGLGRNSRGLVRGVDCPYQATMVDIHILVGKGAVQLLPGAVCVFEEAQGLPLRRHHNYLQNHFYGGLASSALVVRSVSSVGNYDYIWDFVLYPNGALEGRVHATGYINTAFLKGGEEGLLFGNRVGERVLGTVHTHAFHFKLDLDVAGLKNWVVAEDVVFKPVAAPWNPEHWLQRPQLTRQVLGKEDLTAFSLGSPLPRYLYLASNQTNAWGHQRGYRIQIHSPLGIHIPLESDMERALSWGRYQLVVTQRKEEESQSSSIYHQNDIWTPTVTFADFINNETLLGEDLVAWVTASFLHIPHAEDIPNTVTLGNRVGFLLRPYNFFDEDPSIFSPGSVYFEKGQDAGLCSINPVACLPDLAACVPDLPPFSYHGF
Procedure Text: AOC2 biochemical assay (Amplex Red)
Run Parameters: read-out: AOC2 IC50
Counter-ions that a name gives are not always drawn.
Property Measured: IC50 (nM)

Known results for compounds:
Compound	Quantitative Readout
COC(=O)C1CCN(S(=O)(=O)c2ccc(OC/C(=C\F)CN)nc2)CC1 [Example 34]	78
NC/C(=C/F)COc1ccc(S(=O)(=O)N2C[C@@H]3[C@H](C2)[C@H]3C(=O)O)cn1 [Example 45]	70
CC(=O)N1CC(C2CCN(S(=O)(=O)c3ccc(OC/C(=C\F)CN)nc3)CC2)C1 [Example 9]	222
CCNC(=O)C1CCN(S(=O)(=O)c2ccc(OC/C(=C\F)CN)nc2)CC1 [Example 15]	202

I = CC1(O)CCN(S(=O)(=O)c2ccc(OC/C(=C\F)CN)nc2)CC1 [Example 41]
II = COC1CCN(S(=O)(=O)c2ccc(OC/C(=C\F)CN)nc2)CC1 [Example 40]
III = NC/C(=C/F)COc1ccc(S(=O)(=O)N2CCC(C(N)=O)CC2)cn1 [Example 7]
IV = CN1CCN(C2CCN(S(=O)(=O)c3ccc(OC/C(=C\F)CN)nc3)CC2)C1=O [Example 1, trifluoroacetate]
Put the items in sequence by IC50, from largest down. Response format: the labels, sorted as the prompt asks.
III, IV, II, I
(III: 272 nM, IV: 120 nM, II: 40 nM, I: 24 nM)

* * *

System Tested: AOC1 (Homo sapiens, UniProt P19801)
Construct: purchased R&D Systems 8297-AO-010
Sequence (P19801 20-751): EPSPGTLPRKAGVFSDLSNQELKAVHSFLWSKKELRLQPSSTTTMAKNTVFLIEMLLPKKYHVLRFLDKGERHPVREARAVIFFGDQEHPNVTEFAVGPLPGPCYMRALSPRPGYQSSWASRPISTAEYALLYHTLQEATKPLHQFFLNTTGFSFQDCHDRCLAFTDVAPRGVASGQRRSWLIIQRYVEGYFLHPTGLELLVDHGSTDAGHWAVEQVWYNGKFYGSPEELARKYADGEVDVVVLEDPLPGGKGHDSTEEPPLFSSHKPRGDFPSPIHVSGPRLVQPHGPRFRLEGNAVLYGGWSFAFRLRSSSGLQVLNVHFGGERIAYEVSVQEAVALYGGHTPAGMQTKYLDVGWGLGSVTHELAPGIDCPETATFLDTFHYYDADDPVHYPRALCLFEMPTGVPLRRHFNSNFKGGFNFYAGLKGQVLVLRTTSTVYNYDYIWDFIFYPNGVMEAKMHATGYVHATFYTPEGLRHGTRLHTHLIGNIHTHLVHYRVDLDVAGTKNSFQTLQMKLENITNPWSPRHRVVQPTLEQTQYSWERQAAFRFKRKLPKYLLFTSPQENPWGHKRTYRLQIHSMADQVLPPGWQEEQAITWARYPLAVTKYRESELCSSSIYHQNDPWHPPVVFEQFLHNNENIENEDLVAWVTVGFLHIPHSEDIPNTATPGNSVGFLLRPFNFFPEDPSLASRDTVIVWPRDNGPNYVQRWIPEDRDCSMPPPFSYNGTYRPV
Procedure Text: AOC1 biochemical assay (Amplex Red)
Run Parameters: read-out: AOC1 IC50
Property Measured: IC50 (µM)

Compound Structure	Quantitative Readout
CC1(C(=O)NCCF)CCN(S(=O)(=O)c2ccc(OC/C(=C\F)CN)nc2)CC1	14.6
NC/C(=C/F)COc1ccc(S(=O)(=O)N2CC[C@@H](C(N)=O)C2)cn1	0.869
NC/C(=C/F)COc1ccc(S(=O)(=O)N2CC[C@H](C(=O)N3CCOCC3)C2)cn1	4.09

P = NC/C(=C/F)COc1ccc(S(=O)(=O)N2CCC(O)(C(F)(F)F)CC2)cn1
Q = CC(F)(F)CNC(=O)CC1CCN(S(=O)(=O)c2ccc(OC/C(=C\F)CN)nc2)CC1
R = CC(=O)N[C@@H]1CCCN(S(=O)(=O)c2ccc(OC/C(=C\F)CN)nc2)C1
S = NC/C(=C/F)COc1ccc(S(=O)(=O)N2CCC(C(N)=O)CC2)cn1
Hi! Can you put these in order of IC50, lowest number first? Lab note: final answer is the ordered label list.
R, S, P, Q

* * *

Listed here are molecules together with their documented IC50.
System Tested: MAO-A (Homo sapiens, UniProt P21397)
Construct: purchased Sigma-Aldrich M7316
Sequence (P21397 whole entry): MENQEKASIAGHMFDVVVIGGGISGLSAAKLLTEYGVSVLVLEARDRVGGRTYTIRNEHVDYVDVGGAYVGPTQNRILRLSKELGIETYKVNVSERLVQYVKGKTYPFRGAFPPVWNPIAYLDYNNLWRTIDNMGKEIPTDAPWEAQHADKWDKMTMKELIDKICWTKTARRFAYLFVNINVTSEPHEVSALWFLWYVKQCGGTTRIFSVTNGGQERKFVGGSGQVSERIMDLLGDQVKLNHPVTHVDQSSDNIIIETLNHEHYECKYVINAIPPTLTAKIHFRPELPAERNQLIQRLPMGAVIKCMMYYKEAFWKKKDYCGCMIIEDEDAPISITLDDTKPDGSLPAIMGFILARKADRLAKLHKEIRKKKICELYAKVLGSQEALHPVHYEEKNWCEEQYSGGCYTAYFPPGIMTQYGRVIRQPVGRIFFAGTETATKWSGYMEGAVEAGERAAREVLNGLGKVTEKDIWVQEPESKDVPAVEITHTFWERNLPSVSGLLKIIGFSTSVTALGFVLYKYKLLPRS
Procedure Text: MAO-A biochemical assay (MAO-Glo)
Run Parameters: IC50; read-out: MAO-A
Where a name gives a salt, the structure may show the parent alone.

The examples below pair each entry with its known result.
Molecule	System Tested	Result
CCNC(=O)C1CCN(S(=O)(=O)c2ccc(OC/C(=C\F)CN)nc2)CC1	MAO-A (Homo sapiens, UniProt P21397)	> 50 µM
NC/C(=C/F)COc1ccc(S(=O)(=O)N2CC(C3CCN(C(=O)C4CC4)CC3)C2)cn1	MAO-A (Homo sapiens, UniProt P21397)	> 50 µM
COC1CN(S(=O)(=O)c2ccc(OC/C(=C\F)CN)nc2)C1	MAO-A (Homo sapiens, UniProt P21397)	40.5 µM
NC/C(=C/F)COc1ccc(S(=O)(=O)N2CC(C(N)=O)C2)cn1	MAO-A (Homo sapiens, UniProt P21397)	> 50 µM

Answer with reported IC50 of "NC/C(=C/F)COc1ccc(S(=O)(=O)N2CCC(CC(=O)N3CC(O)C3)CC2)cn1"
> 50 µM

Look up and state reported IC50 for "NC/C(=C/F)COc1ccc(S(=O)(=O)N2CCC[C@H]2C(N)=O)cn1"
> 50 µM

Consider the molecule "CN(C)C(=O)C1CN(S(=O)(=O)c2ccc(OC/C(=C\F)CN)nc2)C1" and give its recorded IC50.
> 50 µM

Answer with the recorded IC50 of "NC/C(=C/F)COc1ccc(S(=O)(=O)N2CCC(C(=O)N3CCC3)CC2)cn1" only.
> 50 µM

Recall and state the measured IC50 for NC/C(=C/F)COc1ccc(S(=O)(=O)N2CCC(CC(=O)O)CC2)cn1 [Example 44, trifluoroacetate] .
> 50 µM

For "COC(=O)CC1CCN(S(=O)(=O)c2ccc(OC/C(=C\F)CN)nc2)CC1" , write its IC50.
38.6 µM

Please give measured IC50 of the following entry: "CC1(C(=O)NCCF)CCN(S(=O)(=O)c2ccc(OC/C(=C\F)CN)nc2)CC1"
> 50 µM

Report measured IC50; entry is "NC/C(=C/F)COc1ccc(S(=O)(=O)N2CC[C@H](O)C2)cn1"
49.1 µM

Give the measured IC50 for "CC1(C(=O)O)CCN(S(=O)(=O)c2ccc(OC/C(=C\F)CN)nc2)CC1"
> 50 µM

* * *

System Tested: AOC1 (Homo sapiens)
Construct: purchased R&D Systems 8297-AO-010
Procedure Text: AOC1 biochemical assay (Amplex Red)
Run Parameters: read-out: AOC1 IC50
Property Measured: IC50 (nM)

P = CNC(=O)[C@@H]1CCCN1S(=O)(=O)c1ccc(OC/C(=C\F)CN)nc1 [Example 8]
Q = NC/C(=C/F)COc1ccc(S(=O)(=O)N2CCC(CC(=O)NCCO)CC2)cn1 [Example 52]
Would you let me know which has the greater IC50 value, P or Q ? Write the label of whichever entry you select.
Q
(Q: 15100 nM, P: 497 nM)

a = CC1(O)CN(S(=O)(=O)c2ccc(OC/C(=C\F)CN)nc2)C1 [Example 16]
b = COC(=O)C1CCN(S(=O)(=O)c2ccc(OC/C(=C\F)CN)nc2)CC1 [Example 34]
Compare a and b and name the one whose reported IC50 is smaller. Answer format: the label of the selected item.
a
(a: 441 nM, b: 2400 nM)

a = CC(=O)N[C@H]1CCCN(S(=O)(=O)c2ccc(OC/C(=C\F)CN)nc2)C1 [Example 6]
b = CNC(=O)[C@@]12C[C@@H]1CN(S(=O)(=O)c1ccc(OC/C(=C\F)CN)nc1)C2 [Example 29]
Please indicate which has the smaller reported IC50: a , or b . State the label of the item chosen.
a
(a: 678 nM, b: 1370 nM)

1 = COC1CCN(S(=O)(=O)c2ccc(OC/C(=C\F)CN)nc2)CC1 [Example 40]
2 = NC/C(=C/F)COc1ccc(S(=O)(=O)N2CCC(CC(=O)N3CC(O)C3)CC2)cn1 [Example 55]
Hello, I am sorting some records. Could you say if 1 or 2 has the smaller IC50 value? Answer format: the label of the selected item.
1
